Biological target: human secretin receptor (hSCTR) (human, UniProt P47872 23-440)
Sequence (P47872 23-440): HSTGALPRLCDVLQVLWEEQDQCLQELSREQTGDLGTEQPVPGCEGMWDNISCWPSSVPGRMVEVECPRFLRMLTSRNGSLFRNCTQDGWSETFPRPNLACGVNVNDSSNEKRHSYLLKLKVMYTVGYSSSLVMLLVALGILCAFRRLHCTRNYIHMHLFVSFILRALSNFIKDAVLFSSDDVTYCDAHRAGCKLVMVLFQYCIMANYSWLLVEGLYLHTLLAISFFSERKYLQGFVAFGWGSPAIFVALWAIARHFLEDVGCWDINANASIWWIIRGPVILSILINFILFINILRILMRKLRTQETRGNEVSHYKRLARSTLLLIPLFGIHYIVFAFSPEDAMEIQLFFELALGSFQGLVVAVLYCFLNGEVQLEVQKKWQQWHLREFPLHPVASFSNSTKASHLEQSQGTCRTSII
Assay: cell-based or functional assay
Numbered stars: 1 amine (or outer) side, 2 acyl side, 3 side chain; on linkers, the order of the positions; unused ones are H or OH. Square brackets hold non-standard residues; d marks the D form. Side chains are listed from the residue outwards. Ends that are not written are not given here. * marks the point of attachment. C20 diacid = O=C(O)CCCCCCCCCCCCCCCCCCC(=O)*; γGlu = O=C(O)[C@H](CCC(=O)[*:2])N[*:1]; AEEA = NCCOCCOCC(=O)O; Aib = CC(C)(N)C(=O)O
reported-endpoint: pEC50 hSCTR

// query Data request, read-out pEC50 hSCTR, for H[Aib]EGTFTSDVSRLK([AEEA-AEEA-γGlu-C20 diacid])E[Aib]AAAQRFLEHLV-NH2 [SEQ ID NO: 81]
// result 7.1 -log M

// query Data request, read-out pEC50 hSCTR, for H[Aib]EGTFTSDVSTLK([AEEA-AEEA-γGlu-C20 diacid])EEAASQRFLEHLV-NH2 [SEQ ID NO: 6]
// result 6.5 -log M

// query Data request, read-out pEC50 hSCTR, for H[Aib]EGTFTSDVSVLK([AEEA-AEEA-γGlu-C20 diacid])EFAASQRFLEHLV-NH2 [SEQ ID NO: 92]
// result 5.8 -log M

// query Data request, read-out pEC50 hSCTR, for H[Aib]EGTFTSDVSTLK([AEEA-AEEA-γGlu-C20 diacid])ELAAAQRFLEHLV-NH2 (also: K14 lipidated with C20DA[γE][OEG][OEG]- or C18DA[γE][OEG][OEG]-) [SEQ ID NO: 11]
// result 6.2 -log M

// query Data request, read-out pEC50 hSCTR, for H[Aib]EGTFTSDVSELK([AEEA-AEEA-γGlu-C20 diacid])EEAAEQRFLEHLV-NH2 [SEQ ID NO: 51]
// result 5.7 -log M

// query Data request, read-out pEC50 hSCTR, for H[Aib]EGTFTSDVSRLK([AEEA-AEEA-γGlu-C20 diacid])EFAASQRFLEHLV-NH2 [SEQ ID NO: 52]
// result 6.4 -log M

// query Data request, read-out pEC50 hSCTR, for H[Aib]EGTFTSDVSTLK([AEEA-AEEA-γGlu-C20 diacid])ELAAEQRFLEHLV-NH2 [SEQ ID NO: 78]
// result 5.4 -log M
